# Test Summary: Aqueous solubility assay in Normal Ringer Solution
# Conditions Used: Normal Ringer Solution, saline or isotonic, kinetic from dmso stock
Experimental Readout: solubility at 40 min

| Molecule | Result |
| --- | --- |
| CCc1ccccc1-c1ccc(C2CCN(C(=O)c3ccc(Cl)cn3)C2)c(CO)c1 (centres unmarked) | ~5.3 µM |

Complete the entry with solubility at 40 min for CC(O)c1ccccc1-c1ccc(N2CC[C@H](Oc3ccc(C(F)(F)F)cn3)C2)c(CO)c1 (some centres unmarked)
> 5.35 µM

Complete the entry with solubility at 40 min for CCc1c(C)cccc1-c1ccc(C2CCN(C(=O)c3ccc(F)cn3)C2)c(CO)c1 (centres unmarked)
> 15.7 µM

###

# pIC50 annotations
# Tested On: hTRPV3 (Homo sapiens (Human))
# Test Summary: Whole-cell patch clamp, hTRPV3 Phase 1 / Phase 2 currents
# Format: cell-based
# Conditions Used: Phase 1 current, inward, whole-cell patch clamp; read-out: hTRPV3 Patch P1 Inwd
pIC50: −log10 of the molar value.

| Molecule | Result |
| --- | --- |
| COc1ccccc1Oc1ccc(N2CC[C@H](Oc3ccc(F)cn3)C2)c(CO)c1 | 6.00 to 7.00 |
| NC(=O)c1cc(-c2ccccc2)ncc1N1CC[C@@H](Oc2ccc(C(F)(F)F)cn2)C1 | 6.00 to 7.00 |
| O=C(c1ccc(F)cc1)c1ccc(N2CC[C@H](Oc3ncccc3Cl)C2)c(CCO)c1 [Compound 1-294] | 6.00 to 7.00 |
| N#Cc1ccccc1N1CC[C@@H](Oc2ccc(C(F)(F)F)cn2)C1 | < 6.00 |
| O=C(O)c1cc(-c2ccccc2)ccc1N1CC[C@H](Oc2ccc(C(F)(F)F)cn2)C1 | < 6.00 |
| CC(C)NC(=O)c1ccccc1N1CC[C@H](Oc2ccc(C(F)(F)F)cn2)C1 | < 6.00 |
| Cc1ccccc1-c1ccc(N2CC[C@H](Oc3ccc(F)cn3)C2)c(CO)n1 | 6.00 to 7.00 |

Moving on to another molecule below.
Complete the entry with pIC50 for Cc1ccc(C(O)c2ccc(C3CCN(C(=O)c4ncccc4Cl)C3)c(CO)c2)cc1 (centres unmarked)
< 6.00

###

# pIC50 annotations
# Tested On: hTRPV3 (Homo sapiens (Human), UniProt Q8NET8)
# Sequence (Q8NET8 whole entry): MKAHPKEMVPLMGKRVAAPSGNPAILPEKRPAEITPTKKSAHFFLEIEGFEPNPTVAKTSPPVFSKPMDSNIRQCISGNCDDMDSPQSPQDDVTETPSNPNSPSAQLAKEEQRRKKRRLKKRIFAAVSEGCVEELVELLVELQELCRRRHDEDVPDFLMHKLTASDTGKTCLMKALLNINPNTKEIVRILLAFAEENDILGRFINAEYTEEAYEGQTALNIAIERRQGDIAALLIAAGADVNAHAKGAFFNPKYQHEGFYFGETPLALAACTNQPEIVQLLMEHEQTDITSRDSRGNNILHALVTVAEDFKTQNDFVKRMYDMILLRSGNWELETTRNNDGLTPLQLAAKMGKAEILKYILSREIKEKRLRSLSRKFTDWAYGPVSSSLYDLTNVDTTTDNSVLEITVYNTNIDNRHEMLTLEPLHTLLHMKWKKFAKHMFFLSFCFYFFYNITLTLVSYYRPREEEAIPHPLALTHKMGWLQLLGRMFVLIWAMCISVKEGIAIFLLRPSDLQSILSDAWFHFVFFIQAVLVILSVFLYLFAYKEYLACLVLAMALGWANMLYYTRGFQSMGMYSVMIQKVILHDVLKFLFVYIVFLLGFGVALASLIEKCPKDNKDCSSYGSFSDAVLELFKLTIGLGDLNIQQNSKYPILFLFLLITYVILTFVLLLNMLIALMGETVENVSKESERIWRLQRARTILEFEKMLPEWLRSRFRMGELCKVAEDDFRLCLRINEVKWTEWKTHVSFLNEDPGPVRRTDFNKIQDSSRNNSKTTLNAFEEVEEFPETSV
# Test Summary: Whole-cell patch clamp, hTRPV3 Phase 1 / Phase 2 currents
# Format: cell-based
# Conditions Used: Phase 2 current, inward, whole-cell patch clamp; read-out: hTRPV3 Patch P2 Inwd
pIC50: −log10 of the molar value.

# example entries with known answers
| Compound | pIC50 |
| --- | --- |
| NC(=O)c1cc(-c2ccccc2Cl)ccc1N1CCC(Oc2ccc3ccccc3n2)C1=O (centres unmarked) | < 6.00 |
| Oc1cc(-c2ccccc2)ccc1N1CC[C@@H](Oc2ccc(C(F)(F)F)cn2)C1 | < 6.00 |
| Cc1ccc(O[C@H]2CCN(c3ccc(Oc4ccccc4C)nc3CO)C2)nc1 | < 6.00 |
| COc1ccccc1-c1ccc(N2CC[C@H](Oc3ccc(C(F)(F)F)cn3)C2)c(CO)n1 | < 6.00 |
| CC(O)c1cc(F)ccc1-c1ccc(C2CCN(C(=O)c3ccc(Cl)cn3)C2)c(CO)c1 (centres unmarked) | 6.00 to 7.00 |
| OCc1cc(-c2ccccc2)ccc1N1CC[C@H](Oc2nc(C(F)(F)F)cs2)C1 | < 6.00 |
| CC(C)(C)NS(=O)(=O)c1cc(-c2ccccc2)ccc1N1CCC(Oc2ccc(C(F)(F)F)cn2)C1 (stereo in doubt) | < 6.00 |
| O=C(c1cccc(Cl)c1)c1ccc(N2CC[C@H](Nc3ccc(F)cn3)C2)c(CCO)c1 | < 6.00 |

Complete the entry with pIC50 for `Oc1cc(-c2ccccc2Cl)ccc1N1CC[C@@H](Oc2ccc(C(F)(F)F)cn2)C1`
6.00 to 7.00

Complete the entry with pIC50 for CC(C)c1ccccc1-c1ccc(C2CCN(C(=O)c3ccc(Cl)cn3)C2)c(C(N)=O)c1 (centres unmarked)
7.00 to 8.00

Complete the entry with pIC50 for `NC(=O)c1cc(-c2ccccc2)ccc1N1CC[C@@H](Oc2ccc3cc(Cl)ccc3n2)C1`
< 6.00

Complete the entry with pIC50 for `N#Cc1cc(C(F)(F)F)ccc1N1CC[C@H](Oc2ccc(C(F)(F)F)cn2)C1`
6.00 to 7.00

Complete the entry with pIC50 for `OCc1ccccc1-c1ccc(N2CC[C@H](Oc3ccc(C(F)(F)F)cn3)C2)c(CO)c1`
< 6.00

Complete the entry with pIC50 for OCCc1cc(C(O)c2ccc(Cl)cc2)ccc1N1CC[C@H](Oc2ncccc2Cl)C1 (some centres unmarked)
< 6.00

Complete the entry with pIC50 for `Cc1ccccc1C(=O)c1ccc(N2CC[C@H](Oc3ncccc3Cl)C2)c(CO)c1`
6.00 to 7.00
